- Test: Photolytic stability of the compound assessed as half life under 12900 lx light irradiation measured for 14 days by LC-MS analysis
- Type: physicochemical
- Condition context: time 14 day
Measured attribute: half-life

// query half-life value for entry `CN(C)CCc1c[nH]c2cccc(O)c12.OB(O)O` < 16.7 h

----------
- Test: Thermal stability of the compound assessed as parent compound remaining at 60 degreeC measured for 6 days by LC-MS analysis
- Type: physicochemical
- Condition context: time 6 day; read-out: Stability
Measured attribute: remaining at 144 h (%)
Report the figure in % without appending any unit label.

// query remaining at 144 h value for entry `CN(C)CCc1c[nH]c2cccc(O)c12.OB(O)O` 0
